Sourced from patent US5055469A

- assay_text: Acute toxicity
- Set-up: species or system mouse (male ddY)
- protocol_conditions: mouse, in vivo; mice, oral, single dose, observed for 7 days
assay_readout: LD50 at 168 h

Ask: Name the reported LD50 at 168 h value associated with the compound Cc1ccc(Nc2ccccc2NC(=O)C[n+]2ccccc2)cc1.[Cl-]
Reply: ≥ 2000 mg/kg
